- CONDITION_PARAMETERS: 283.65 K; 101.33 kPa; Liquid; Vibrating tube method
VALUE_KIND: mass density (kg/m3)

compound="CCCCC(=O)[O-].C[NH2+]CCO [2-hydroxy-N-methylethanaminium pentanoate]" value_kind="mass density" output_unit=kg/m3 measurement=1026.01
compound="CCC(=O)[O-].C[NH2+]CCO [2-hydroxy-N-methylethanaminium propionate]" value_kind="mass density" output_unit=kg/m3 measurement=1080.72
compound="CC(=O)[O-].C[NH2+]CCO [N-methyl-2-hydroxyethylammonium acetate]" value_kind="mass density" output_unit=kg/m3 measurement=1109.53
compound="C[NH2+]CCO.O=C[O-] [2-hydroxy-N-methylethanaminium formate]" value_kind="mass density" output_unit=kg/m3 measurement=1136.35
compound="CC(C)C(=O)[O-].C[NH2+]CCO [2-hydroxy-N-methylethanaminium isobutyrate]" value_kind="mass density" output_unit=kg/m3 measurement=1052.6
compound="CCCC(=O)[O-].C[NH2+]CCO [N-methyl-2-hydroxyethylammonium butanoate]" value_kind="mass density" output_unit=kg/m3 measurement=1049.02

* * *

Overview of reported speed of sound across a group of molecules:
- CONDITION_PARAMETERS: 317.16 K; 101.33 kPa; Liquid; Pulse-echo method
VALUE_KIND: speed of sound (m/s)

molecule="C[NH2+]CCO.O=C[O-] [2-hydroxy-N-methylethanaminium formate]" measurement=1778.3
molecule="CCCCC(=O)[O-].C[NH2+]CCO [2-hydroxy-N-methylethanaminium pentanoate]" measurement=1489.9
molecule="CC(C)C(=O)[O-].C[NH2+]CCO [2-hydroxy-N-methylethanaminium isobutyrate]" measurement=1557.7
molecule="CCC(=O)[O-].C[NH2+]CCO [2-hydroxy-N-methylethanaminium propionate]" measurement=1633.9
molecule="CCCC(=O)[O-].C[NH2+]CCO [N-methyl-2-hydroxyethylammonium butanoate]" measurement=1555.2

* * *

- CONDITION_PARAMETERS: 323.16 K; 101.33 kPa; Liquid; Pulse-echo method
VALUE_KIND: speed of sound (m/s)

compound="C[NH2+]CCO.O=C[O-] [2-hydroxy-N-methylethanaminium formate]" value_kind="speed of sound" measurement=1766.7
compound="CCC(=O)[O-].C[NH2+]CCO [2-hydroxy-N-methylethanaminium propionate]" value_kind="speed of sound" measurement=1616
compound="CCCCC(=O)[O-].C[NH2+]CCO [2-hydroxy-N-methylethanaminium pentanoate]" value_kind="speed of sound" measurement=1471.6
compound="CC(C)C(=O)[O-].C[NH2+]CCO [2-hydroxy-N-methylethanaminium isobutyrate]" value_kind="speed of sound" measurement=1540.6
compound="CCCC(=O)[O-].C[NH2+]CCO [N-methyl-2-hydroxyethylammonium butanoate]" value_kind="speed of sound" measurement=1536.2

* * *

Below is a list of entries, each paired with its recorded speed of sound value.
- CONDITION_PARAMETERS: 335.16 K; 101.33 kPa; Liquid; Pulse-echo method
VALUE_KIND: speed of sound (m/s)

compound="CCCCC(=O)[O-].C[NH2+]CCO [2-hydroxy-N-methylethanaminium pentanoate]" value_kind="speed of sound" output_unit=m/s measurement=1434.7
compound="CCCC(=O)[O-].C[NH2+]CCO [N-methyl-2-hydroxyethylammonium butanoate]" value_kind="speed of sound" output_unit=m/s measurement=1498.6
compound="C[NH2+]CCO.O=C[O-] [2-hydroxy-N-methylethanaminium formate]" value_kind="speed of sound" output_unit=m/s measurement=1743.8
compound="CCC(=O)[O-].C[NH2+]CCO [2-hydroxy-N-methylethanaminium propionate]" value_kind="speed of sound" output_unit=m/s measurement=1579.7
compound="CC(C)C(=O)[O-].C[NH2+]CCO [2-hydroxy-N-methylethanaminium isobutyrate]" value_kind="speed of sound" output_unit=m/s measurement=1506.2

* * *

- CONDITION_PARAMETERS: 278.65 K; 101.33 kPa; Liquid; Pulse-echo method
VALUE_KIND: speed of sound (m/s)

compound="CCC(=O)[O-].C[NH2+]CCO [2-hydroxy-N-methylethanaminium propionate]" value_kind="speed of sound" output_unit=m/s measurement=1750.7
compound="CCCCC(=O)[O-].C[NH2+]CCO [2-hydroxy-N-methylethanaminium pentanoate]" value_kind="speed of sound" output_unit=m/s measurement=1614.7
compound="CC(C)C(=O)[O-].C[NH2+]CCO [2-hydroxy-N-methylethanaminium isobutyrate]" value_kind="speed of sound" output_unit=m/s measurement=1668.6
compound="C[NH2+]CCO.O=C[O-] [2-hydroxy-N-methylethanaminium formate]" value_kind="speed of sound" output_unit=m/s measurement=1853.7
compound="CCCC(=O)[O-].C[NH2+]CCO [N-methyl-2-hydroxyethylammonium butanoate]" value_kind="speed of sound" output_unit=m/s measurement=1681.5

* * *

- CONDITION_PARAMETERS: 278.15 K; 101.33 kPa; Liquid; Vibrating tube method
Measured mass density, listed per entry for reference.
VALUE_KIND: mass density (kg/m3)

compound="CC(C)C(=O)[O-].C[NH2+]CCO [2-hydroxy-N-methylethanaminium isobutyrate]" value_kind="mass density" measurement=1056.12
compound="C[NH2+]CCO.O=C[O-] [2-hydroxy-N-methylethanaminium formate]" value_kind="mass density" measurement=1139.41
compound="CC(=O)[O-].C[NH2+]CCO [N-methyl-2-hydroxyethylammonium acetate]" value_kind="mass density" measurement=1112.83
compound="CCCC(=O)[O-].C[NH2+]CCO [N-methyl-2-hydroxyethylammonium butanoate]" value_kind="mass density" measurement=1052.71
compound="CCCCC(=O)[O-].C[NH2+]CCO [2-hydroxy-N-methylethanaminium pentanoate]" value_kind="mass density" measurement=1029.68
compound="CCC(=O)[O-].C[NH2+]CCO [2-hydroxy-N-methylethanaminium propionate]" value_kind="mass density" measurement=1084.28

* * *

- CONDITION_PARAMETERS: 291.65 K; 101.33 kPa; Liquid; Pulse-echo method
Let's look at some compounds and their measured speed of sound.
VALUE_KIND: speed of sound (m/s)

compound="C[NH2+]CCO.O=C[O-] [2-hydroxy-N-methylethanaminium formate]" measurement=1828
compound="CCCCC(=O)[O-].C[NH2+]CCO [2-hydroxy-N-methylethanaminium pentanoate]" measurement=1569.6
compound="CCCC(=O)[O-].C[NH2+]CCO [N-methyl-2-hydroxyethylammonium butanoate]" measurement=1635.5
compound="CCC(=O)[O-].C[NH2+]CCO [2-hydroxy-N-methylethanaminium propionate]" measurement=1709.3
compound="CC(C)C(=O)[O-].C[NH2+]CCO [2-hydroxy-N-methylethanaminium isobutyrate]" measurement=1629.8

* * *

- CONDITION_PARAMETERS: 308.15 K; 101.33 kPa; Liquid; Vibrating tube method
mass density by entry:
VALUE_KIND: mass density (kg/m3)

compound="CC(=O)[O-].C[NH2+]CCO [N-methyl-2-hydroxyethylammonium acetate]" measurement=1094.83
compound="CCCC(=O)[O-].C[NH2+]CCO [N-methyl-2-hydroxyethylammonium butanoate]" measurement=1032.53
compound="CCC(=O)[O-].C[NH2+]CCO [2-hydroxy-N-methylethanaminium propionate]" measurement=1064.8
compound="CC(C)C(=O)[O-].C[NH2+]CCO [2-hydroxy-N-methylethanaminium isobutyrate]" measurement=1036.92
compound="C[NH2+]CCO.O=C[O-] [2-hydroxy-N-methylethanaminium formate]" measurement=1122.67
compound="CCCCC(=O)[O-].C[NH2+]CCO [2-hydroxy-N-methylethanaminium pentanoate]" measurement=1009.51

* * *

- CONDITION_PARAMETERS: 287.65 K; 101.33 kPa; Liquid; Pulse-echo method
Numbers after ± are expanded uncertainties.
VALUE_KIND: speed of sound

compound="C[NH2+]CCO.O=C[O-] [2-hydroxy-N-methylethanaminium formate]" value_kind="speed of sound" measurement="1835.9 ± 2.2 m/s"
compound="CCC(=O)[O-].C[NH2+]CCO [2-hydroxy-N-methylethanaminium propionate]" value_kind="speed of sound" measurement="1721.6 ± 2.2 m/s"
compound="CCCCC(=O)[O-].C[NH2+]CCO [2-hydroxy-N-methylethanaminium pentanoate]" value_kind="speed of sound" measurement="1582.8 ± 2.1 m/s"
compound="CC(C)C(=O)[O-].C[NH2+]CCO [2-hydroxy-N-methylethanaminium isobutyrate]" value_kind="speed of sound" measurement="1641.5 ± 2.1 m/s"
compound="CCCC(=O)[O-].C[NH2+]CCO [N-methyl-2-hydroxyethylammonium butanoate]" value_kind="speed of sound" measurement="1649 ± 2.1 m/s"

* * *

- CONDITION_PARAMETERS: 279.9 K; 101.33 kPa; Liquid; Vibrating tube method
VALUE_KIND: mass density (kg/m3)

compound="CC(C)C(=O)[O-].C[NH2+]CCO [2-hydroxy-N-methylethanaminium isobutyrate]" measurement=1055
compound="CC(=O)[O-].C[NH2+]CCO [N-methyl-2-hydroxyethylammonium acetate]" measurement=1111.78
compound="CCC(=O)[O-].C[NH2+]CCO [2-hydroxy-N-methylethanaminium propionate]" measurement=1083.15
compound="CCCC(=O)[O-].C[NH2+]CCO [N-methyl-2-hydroxyethylammonium butanoate]" measurement=1051.54
compound="CCCCC(=O)[O-].C[NH2+]CCO [2-hydroxy-N-methylethanaminium pentanoate]" measurement=1028.51
compound="C[NH2+]CCO.O=C[O-] [2-hydroxy-N-methylethanaminium formate]" measurement=1138.44
